Parameter: remaining at 6 h, 10 µM. Scope: all listed entries.
- Assay Procedure: Plasma stability, human plasma
- Condition Details: human, human Li-heparin plasma
Bridge positions count the residues as written; N and C are the ends. Peptide text beside a SMILES is read from it.
Give your result in % as a bare value.

[[record]]
compound = "CC(=O)N[C@@H](CO)C(=O)N[C@@H](CCCNC(=N)N)C(=O)N[C@@H](CC(C)C)C(=O)N[C@@H](CCC(=O)O)C(=O)N[C@H]1CCC(=O)NCCCC[C@@H](C(=O)N[C@@H](CCCNC(=N)N)C(=O)N[C@@H](CCCNC(=N)N)C(=O)N[C@@H](CC(C)C)C(=O)N[C@H](C(=O)N[C@@H](CCC(=O)O)C(N)=O)[C@@H](C)O)NC(=O)[C@H](CC(C)C)NC(=O)[C@H](CCC(=O)O)NC1=O [SD15192] (Ac-SRLEEELKRRLTE-NH2; lactam 5-8)"
endpoint_result = 34.2

[[record]]
compound = "CC(=O)N1CCC[C@H]1C(=O)N[C@@H](CO)C(=O)N[C@@H](CCCNC(=N)N)C(=O)N[C@@H](CC(C)C)C(=O)N[C@@H](CCC(=O)O)C(=O)N[C@H]1CCCCNC(=O)CC[C@@H](C(=O)N[C@@H](CCCNC(=N)N)C(=O)N[C@@H](CC(C)C)C(=O)N[C@H](C(=O)N[C@@H](CCC(=O)O)C(N)=O)[C@@H](C)O)NC(=O)[C@H](CCCNC(=N)N)NC(=O)[C@H](CC(C)C)NC(=O)[C@H](CCC(=O)O)NC1=O [SD15805] (Ac-PSRLEKELRERLTE-NH2; lactam 6-10)"
endpoint_result = 72.1

[[record]]
compound = "CC(=O)N[C@@H](CO)C(=O)N[C@@H](CCCNC(=N)N)C(=O)N[C@@H](CC(C)C)C(=O)N[C@@H](CCC(=O)O)C(=O)N[C@@H](CCC(=O)O)C(=O)N[C@@H](CCC(=O)O)C(=O)N[C@@H](CC(C)C)C(=O)N[C@@H](CCCNC(=N)N)C(=O)N[C@H]1CCCCNC(=O)CC[C@@H](C(N)=O)NC(=O)[C@H]([C@@H](C)O)NC(=O)[C@H](CC(C)C)NC(=O)[C@H](CCCNC(=N)N)NC1=O [SD15193] (Ac-SRLEEELRKRLTE-NH2; lactam 9-13)"
endpoint_result = 94.5


Okay, now this compound:
Using the record for CC(=O)N[C@@H](CO)C(=O)N[C@@H](CCCNC(=N)N)C(=O)N[C@@H](CC(C)C)C(=O)N[C@@H](CCC(=O)O)C(=O)N[C@H]1CCC(=O)NCCCC[C@@H](C(=O)N[C@@H](CCCNC(=N)N)C(=O)N[C@@H](CC(C)C)C(=O)N[C@H](C(=O)N[C@@H](CCC(=O)O)C(N)=O)[C@@H](C)O)NC(=O)[C@H](CCCNC(=N)N)NC(=O)[C@H](CC(C)C)NC(=O)[C@H](CCC(=O)O)NC1=O [SD15194] (Ac-SRLEEELRKRLTE-NH2; lactam 5-9) , report its remaining at 6 h, 10 µM. 88.1

====

- Assay Procedure: Plasma stability, human plasma
- Condition Details: human plasma, 37° C., timepoint 6 h
Bridge positions count the residues as written; N and C are the ends. Peptide text beside a SMILES is read from it.
Experimental Endpoint: Mean (compound concentration)
Please reply with the number alone, leaving off any unit.

Worked set:
[[record]]
molecule = "CC(=O)N[C@@H](CO)C(=O)N[C@@H](CCCNC(=N)N)C(=O)N[C@@H](CC(C)C)C(=O)N[C@@H](CCC(=O)O)C(=O)N[C@H]1CC(=O)NCCCC[C@@H](C(=O)N[C@@H](CCCNC(=N)N)C(=O)N[C@@H](CC(C)C)C(=O)N[C@H](C(=O)N[C@@H](CCC(=O)O)C(N)=O)[C@@H](C)O)NC(=O)[C@H](CCCNC(=N)N)NC(=O)[C@H](CC(C)C)NC(=O)[C@H](CCC(=O)O)NC1=O [SD15196] (Ac-SRLEDELRKRLTE-NH2; lactam 5-9)"
endpoint_result = 1.73

[[record]]
molecule = "CC(=O)N1CCC[C@H]1C(=O)N[C@@H](CO)C(=O)N[C@@H](CCCNC(=N)N)C(=O)N[C@@H](CC(C)C)C(=O)N[C@@H](CCC(=O)O)C(=O)N[C@H]1CCCCNC(=O)CC[C@@H](C(=O)N[C@@H](CCCNC(=N)N)C(=O)N[C@@H](CC(C)C)C(=O)N[C@H](C(=O)N[C@@H](CCC(=O)O)C(N)=O)[C@@H](C)O)NC(=O)[C@H](CCCNC(=N)N)NC(=O)[C@H](CC(C)C)NC(=O)[C@H](CCC(=O)O)NC1=O [SD15805] (Ac-PSRLEKELRERLTE-NH2; lactam 6-10)"
endpoint_result = 2.046


Using the record for CC(=O)N[C@@H](CO)C(=O)N[C@@H](CCCNC(=N)N)C(=O)N[C@@H](CC(C)C)C(=O)N[C@@H](CCC(=O)O)C(=O)N[C@@H](CCC(=O)O)C(=O)N[C@@H](CCC(=O)O)C(=O)N[C@@H](CC(C)C)C(=O)N[C@@H](CCCNC(=N)N)C(=O)N[C@H]1CCCCNC(=O)CC[C@@H](C(N)=O)NC(=O)[C@H]([C@@H](C)O)NC(=O)[C@H](CC(C)C)NC(=O)[C@H](CCCNC(=N)N)NC1=O [SD15193] (Ac-SRLEEELRKRLTE-NH2; lactam 9-13) , report its Mean (compound concentration). 2.66

Using the record for CC(=O)N[C@@H](CO)C(=O)N[C@@H](CCCNC(=N)N)C(=O)N[C@@H](CC(C)C)C(=O)N[C@@H](CCC(=O)O)C(=O)N[C@H]1CCC(=O)NCCCC[C@@H](C(=O)N[C@@H](CCCNC(=N)N)C(=O)N[C@@H](CC(C)C)C(=O)N[C@H](C(=O)N[C@@H](CCC(=O)O)C(N)=O)[C@@H](C)O)NC(=O)[C@H](CCCNC(=N)N)NC(=O)[C@H](CC(C)C)NC(=O)[C@H](CCC(=O)O)NC1=O [SD15194] (Ac-SRLEEELRKRLTE-NH2; lactam 5-9) , report its Mean (compound concentration). 1.99

====

Parameter: Tube 3 (compound concentration). Scope: all listed entries.
- Assay Procedure: Plasma stability, mouse plasma
- Condition Details: mouse plasma, 37° C., timepoint 0 h
Bridge positions count the residues as written; N and C are the ends. Peptide text beside a SMILES is read from it.
Please reply with the number alone, leaving off any unit.

Worked set:
[[record]]
compound = "CC(=O)N[C@@H](CO)C(=O)N[C@@H](CCCNC(=N)N)C(=O)N[C@@H](CC(C)C)C(=O)N[C@@H](CCC(=O)O)C(=O)N[C@H]1CCC(=O)NCCCC[C@@H](C(=O)N[C@@H](CCCNC(=N)N)C(=O)N[C@@H](CC(C)C)C(=O)N[C@H](C(=O)N[C@@H](CCC(=O)O)C(N)=O)[C@@H](C)O)NC(=O)[C@H](CCCNC(=N)N)NC(=O)[C@H](CC(C)C)NC(=O)[C@H](CCC(=O)O)NC1=O [SD15194] (Ac-SRLEEELRKRLTE-NH2; lactam 5-9)"
endpoint_result = 2.617

[[record]]
compound = "CC(=O)N[C@@H](CO)C(=O)N[C@@H](CCCNC(=N)N)C(=O)N[C@@H](CC(C)C)C(=O)N[C@@H](CCC(=O)O)C(=O)N[C@H]1CCC(=O)NCCCC[C@@H](C(=O)N[C@@H](CCCNC(=N)N)C(=O)N[C@@H](CCCNC(=N)N)C(=O)N[C@@H](CC(C)C)C(=O)N[C@H](C(=O)N[C@@H](CCC(=O)O)C(N)=O)[C@@H](C)O)NC(=O)[C@H](CC(C)C)NC(=O)[C@H](CCC(=O)O)NC1=O [SD15192] (Ac-SRLEEELKRRLTE-NH2; lactam 5-8)"
endpoint_result = 2.658

[[record]]
compound = "CC(=O)N[C@@H](CO)C(=O)N[C@@H](CCCNC(=N)N)C(=O)N[C@@H](CC(C)C)C(=O)N[C@@H](CCC(=O)O)C(=O)N[C@H]1CC(=O)NCCCC[C@@H](C(=O)N[C@@H](CCCNC(=N)N)C(=O)N[C@@H](CC(C)C)C(=O)N[C@H](C(=O)N[C@@H](CCC(=O)O)C(N)=O)[C@@H](C)O)NC(=O)[C@H](CCCNC(=N)N)NC(=O)[C@H](CC(C)C)NC(=O)[C@H](CCC(=O)O)NC1=O [SD15196] (Ac-SRLEDELRKRLTE-NH2; lactam 5-9)"
endpoint_result = 2.497


Okay, now this compound:
Using the record for CC(=O)N[C@@H](CO)C(=O)N[C@@H](CCCNC(=N)N)C(=O)N[C@@H](CC(C)C)C(=O)N[C@@H](CCC(=O)O)C(=O)N[C@@H](CCC(=O)O)C(=O)N[C@@H](CCC(=O)O)C(=O)N[C@@H](CC(C)C)C(=O)N[C@@H](CCCNC(=N)N)C(=O)N[C@H]1CCCCNC(=O)CC[C@@H](C(N)=O)NC(=O)[C@H]([C@@H](C)O)NC(=O)[C@H](CC(C)C)NC(=O)[C@H](CCCNC(=N)N)NC1=O [SD15193] (Ac-SRLEEELRKRLTE-NH2; lactam 9-13) , report its Tube 3 (compound concentration). 3.311

The reported measurements were obtained from patent US20250154202A1.
